The origin of these recorded values is patent US20230159510A1.

system: HCT116 MTAP null cells; assay: HCT116 proliferation assay, MTAP null cells (CellTiter-Glo, 6 days); type: cell-based; conditions: HCT116-MTAP null, 144 h, read-out: Protif_ HCT116-MTAP null IC50
Known pIC50 of a selection of molecules
Entry type: numeric. Quantity: pIC50, the -log10 of concentration in molar units.

Example cases with answers are listed next.
Q: Input Cc1cc2cc(C(=O)N(Cc3ccc(C(F)(F)F)nc3C)[C@H](C)c3ncccn3)ccc2nc1N [Example 509] , output reported pIC50.
Ans: 6.86

Q: For the molecule Cc1cc2cc(C(=O)N(Cc3ccc(OC(F)F)cn3)[C@H](C)c3ncccn3)ccc2nc1N (single isomer, unassigned) [Example 491] , give its measured pIC50 value.
Ans: 7.21

Q: // fetch pIC50 given entry C[C@H](c1ncccn1)N(Cc1ccc(C(F)(F)F)cn1)C(=O)c1ccc2nc(N)c(Cl)cc2c1 [Example 347]
Ans: 6.77

Q: Could you please provide reported pIC50 for Cc1cc2cc(C(=O)N(Cc3ccc(C(F)(F)F)cn3)Cc3ccnc4[nH]ccc34)ncc2nc1N [Example 684] ? Thanks!
Ans: 6.94

Continuing:
Q: Input C[C@H](c1ccc(F)cc1F)N(Cc1ccc(C(F)(F)F)cn1)C(=O)c1cnc2nc(N)c(Br)cc2c1 [Example 346] , output reported pIC50.
Ans: 7.09

Q: Please supply the value of reported pIC50 for the item Cc1cc2cc(C(=O)N(Cc3ccc(C(F)(F)F)cn3)C(C)C3CCCO3)ccc2nc1N (stereo not shown) [Example 632]
Ans: 6.47

Q: For the molecule Cc1cc([C@@H](C)N(Cc2ccc(C(F)(F)F)cn2)C(=O)c2ccc3nc(N)c(C)cc3c2)no1 [Example 392] , report pIC50.
Ans: 6.71

---

biological target: PRMT5/MEP50 (Homo sapiens); test: MTase-Glo methyl transferase assay, Method B (FL-Histone H2A, 1 µM MTA, 1 h pre-incubation); format: biochemical; design: purchased Reaction Biology Corp RD-11-292; settings: read-out: PRMT5 MTase Glo Ki (nM, Meth. B)
Sequence (O14744 2-637 limits assumed): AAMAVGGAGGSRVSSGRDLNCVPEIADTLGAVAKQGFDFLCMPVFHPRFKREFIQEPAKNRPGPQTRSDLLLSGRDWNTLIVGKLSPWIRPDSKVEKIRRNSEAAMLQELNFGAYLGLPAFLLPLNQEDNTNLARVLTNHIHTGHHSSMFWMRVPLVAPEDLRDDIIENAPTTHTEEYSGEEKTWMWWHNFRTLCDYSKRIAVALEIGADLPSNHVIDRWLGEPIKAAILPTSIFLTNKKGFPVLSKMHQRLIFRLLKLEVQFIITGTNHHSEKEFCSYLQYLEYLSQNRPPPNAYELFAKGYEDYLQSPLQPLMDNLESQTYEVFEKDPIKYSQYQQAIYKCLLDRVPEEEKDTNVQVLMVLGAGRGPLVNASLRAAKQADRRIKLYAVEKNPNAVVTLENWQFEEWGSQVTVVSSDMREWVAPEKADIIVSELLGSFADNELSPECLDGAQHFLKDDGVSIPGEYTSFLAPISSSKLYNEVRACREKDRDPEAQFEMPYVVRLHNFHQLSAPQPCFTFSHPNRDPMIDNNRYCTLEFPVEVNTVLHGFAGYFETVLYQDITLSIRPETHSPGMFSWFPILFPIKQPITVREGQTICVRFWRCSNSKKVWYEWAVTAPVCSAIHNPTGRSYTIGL
Sequence (Q9BQA1 2-342 partner limits assumed): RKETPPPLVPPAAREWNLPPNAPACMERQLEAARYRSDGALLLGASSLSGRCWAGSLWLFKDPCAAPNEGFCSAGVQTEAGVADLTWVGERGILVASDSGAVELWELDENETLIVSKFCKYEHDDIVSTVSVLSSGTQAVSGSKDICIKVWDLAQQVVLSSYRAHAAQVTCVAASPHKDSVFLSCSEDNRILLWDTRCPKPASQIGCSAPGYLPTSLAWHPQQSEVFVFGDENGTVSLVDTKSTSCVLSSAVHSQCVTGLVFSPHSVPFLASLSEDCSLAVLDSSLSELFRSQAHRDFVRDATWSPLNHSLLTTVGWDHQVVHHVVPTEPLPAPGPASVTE
We label by threshold. Values of Ki strictly beneath 4 nM are class 1. Values of 4 nM and up are class 0.

Q: For this molecule, is Ki lower than 4 nM? Cc1cc2cc(C(=O)N(Cc3ccccc3O)Cc3ccnc4[nH]ccc34)ccc2nc1N
Ans: class 1

Q: Please indicate whether the reported Ki of Cc1cc2cc(C(=O)N(Cc3ccc(C(F)(F)F)cn3)C(C)CC(C)C)ccc2nc1N (stereo not shown) is strictly below 4 nM.
Ans: class 0

Q: Answer whether the molecule Cc1cc2cc(C(=O)N(CCC3CCC3)Cc3ccc(C(F)(F)F)cn3)ccc2nc1N has Ki strictly less than 4 nM
Ans: class 0

Q: Decide: Ki of Cc1cc2cc(C(=O)N(Cc3ccc(C(F)(F)F)cn3)Cc3ccccc3-n3ccnc3)ccc2nc1N strictly below 4 nM?
Ans: class 1

Q: Please let me know if Cc1cc2cc(C(=O)N(Cc3ccc(C(F)(F)F)cn3)CC3CCCC(O)C3)ccc2nc1N (stereo not shown) shows Ki below 4 nM.
Ans: class 0

Q: Find out if reported Ki for Cc1cc2cc(C(=O)N(Cc3ccc4[nH]c(N)nc4c3)Cc3ccc(C(F)(F)F)cn3)ccc2nc1N is less than 4 nM
Ans: class 1

New cases:
Q: Field: below-cutoff. Rule: recorded Ki strictly less than 4 nM. Subject: Cc1cc2cc(C(=O)N(Cc3ccc(C(F)(F)F)cn3)CC3CCn4ccnc4C3)ccc2nc1N (stereo not shown)
Ans: class 0

Q: hey, is Ki for Cc1cc2cc(C(=O)N(Cc3ccc(C(F)(F)F)cn3)C3CCc4[nH]cnc4C3)ccc2nc1N (stereo not shown) lower than 4 nM or not?
Ans: class 0

Q: State whether 4 nM exceeds Ki recorded for Cc1cc2cc(C(=O)N(Cc3ccc(C(F)(F)F)cn3)C3CCc4sc(Cl)cc43)ccc2nc1N (stereo not shown) .
Ans: class 0

Q: Dear colleague, could you confirm whether Ki of Cc1cc2cc(C(=O)N(Cc3ccc(C(F)(F)F)cn3)CC3CCOCC3)ccc2nc1N falls below 4 nM? Thanks.
Ans: class 0

Q: For this molecule, is Ki lower than 4 nM? Cc1cc2cc(C(=O)N(Cc3ccc(C(F)(F)F)cn3)C3Cc4ccccc4C3O)ccc2nc1N (stereo not shown)
Ans: class 0

Q: Does Cc1cc2cc(C(=O)N(Cc3ccc(C(F)(F)F)cn3)C3CCCC3C#N)ccc2nc1N (stereo not shown) have Ki strictly under 4 nM?
Ans: class 1

Q: Determine whether this molecule shows Ki lower than 4 nM (ties excluded): COc1cccc2c1OCCC2N(Cc1ccc(C(F)(F)F)cn1)C(=O)c1ccc2nc(N)c(C)cc2c1 (stereo not shown)
Ans: class 0

Q: Item Cc1cc2cc(C(=O)N(Cc3ccc(C(F)(F)F)cn3)C3CCc4cn[nH]c4C3)ccc2nc1N (stereo not shown) : Ki beneath 4 nM, strictly?
Ans: class 0

Q: Please check: Ki for Cc1cc2cc(C(=O)N(Cc3cncnc3)Cc3ccc(C(F)(F)F)cn3)ccc2nc1N , strictly under 4 nM or not?
Ans: class 0

Q: Answer whether the molecule Cc1cc2cc(C(=O)N(Cc3ccc(O)c(F)c3)Cc3ccc(C(F)(F)F)cn3)ccc2nc1N has Ki strictly less than 4 nM
Ans: class 1
